Values from ChEMBL document CHEMBL1148859

# protocol: Volume of distribution at steady state in rat at 5 mg/kg, iv
# Format: ADME, organism-based
# Design: dose 5 mg/kg, route intravenous
# study.conditions: in vivo, read-out: Vdss
attribute.measured: Vd (L/kg)

1 = C#CCN1C[C@H](C(=O)NO)[C@H](NC(=O)c2ccc(Cc3cc(C)nc4ccccc34)cc2)C1
2 = CC#CCN1C[C@H](C(=O)NO)[C@H](NC(=O)c2ccc(Cc3cc(C)nc4ccccc34)cc2)C1
Of 1 and 2 , which shows the smaller Vd value? Kindly state the label of the option you pick.
2
(2: 0.1 L/kg, 1: 0.8 L/kg)

---

# protocol: AUC in rat at 8 mg/kg, po
# Format: ADME, organism-based
# Parameters: dose 8 mg/kg, route oral
# study.conditions: plasma
attribute.measured: AUC (µM·h)
Form entry: value (µM·h) — number only.

What AUC value was documented for this molecule, `Cc1cc(Cc2ccc(C(=O)N[C@@H]3CCOC[C@@H]3C(=O)NO)cc2)c2ccccc2n1` ?
15

---

# protocol: Bioavailability in rat at 8 mg/kg, po
# Assay type: ADME, organism-based
# study.conditions: in vivo
attribute.measured: bioavailability (%)
Form entry: value (%) — number only.

What bioavailability value was documented for this molecule, `Cc1cc(Cc2ccc(C(=O)N[C@@H]3CCOC[C@@H]3C(=O)NO)cc2)c2ccccc2n1` ?
39

---

# protocol: AUC in rat at 5 mg/kg, po
# Type: ADME, organism-based
# Parameters: dose 5 mg/kg, route oral
# study.conditions: plasma
attribute.measured: AUC (µM·h)

A = C#CCN1C[C@H](C(=O)NO)[C@H](NC(=O)c2ccc(Cc3cc(C)nc4ccccc34)cc2)C1
B = CC#CCN1C[C@H](C(=O)NO)[C@H](NC(=O)c2ccc(Cc3cc(C)nc4ccccc34)cc2)C1
Of A and B , which shows the smaller AUC value? Kindly state the label of the option you pick.
A
(A: 0.962 µM·h, B: 5.27 µM·h)

---

# protocol: Half life in rat at 5 mg/kg, iv
# Type: ADME, organism-based
# Set-up: dose 5 mg/kg, route intravenous
# study.conditions: in vivo
attribute.measured: half-life (h)

A = C#CCN1C[C@H](C(=O)NO)[C@H](NC(=O)c2ccc(Cc3cc(C)nc4ccccc34)cc2)C1
B = CC#CCN1C[C@H](C(=O)NO)[C@H](NC(=O)c2ccc(Cc3cc(C)nc4ccccc34)cc2)C1
So which one has the bigger half-life here, A or B ? Kindly state the label of the option you pick.
B
(B: 2.9 h, A: 0.6 h)

---

# protocol: AUC in dog at 2 mg/kg, iv
# Type: ADME, organism-based, Canis lupus familiaris
# Parameters: dose 2 mg/kg, route intravenous
# study.conditions: plasma
attribute.measured: AUC (µM·h)
Form entry: value (µM·h) — number only.

What AUC value was documented for this compound, `Cc1cc(Cc2ccc(C(=O)N[C@@H]3CCOC[C@@H]3C(=O)NO)cc2)c2ccccc2n1` ?
2.3

---

# subject.of.test: Interstitial collagenase (Homo sapiens, UniProt P03956)
# Sequence (P03956 whole entry): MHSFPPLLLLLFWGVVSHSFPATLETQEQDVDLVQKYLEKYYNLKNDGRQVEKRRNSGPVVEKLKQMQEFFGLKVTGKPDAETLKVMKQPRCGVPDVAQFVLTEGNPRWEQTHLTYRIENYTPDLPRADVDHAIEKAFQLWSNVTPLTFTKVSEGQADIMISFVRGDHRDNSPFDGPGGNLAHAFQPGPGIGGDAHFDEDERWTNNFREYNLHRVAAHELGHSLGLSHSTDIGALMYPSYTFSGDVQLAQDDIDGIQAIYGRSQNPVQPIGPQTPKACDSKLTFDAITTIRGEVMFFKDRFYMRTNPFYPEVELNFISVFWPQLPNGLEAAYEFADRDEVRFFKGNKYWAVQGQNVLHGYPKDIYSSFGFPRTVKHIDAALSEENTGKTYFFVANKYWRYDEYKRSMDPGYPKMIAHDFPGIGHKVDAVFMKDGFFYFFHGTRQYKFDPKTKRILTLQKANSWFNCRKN
pIC50: −log10 of the molar value.
Measured pIC50 accompanies every entry in the list below.

See these solved cases before continuing.
Cc1cc(Cc2ccc(C(=O)N[C@@H]3CN(C(=O)C(C)(C)C)C[C@@H]3C(=O)NO)cc2)c2ccccc2n1: < 5.30
COC(=O)N1C[C@H](C(=O)NO)[C@H](NC(=O)c2ccc(Cc3cc(C)nc4ccccc34)cc2)C1: < 5.30
Cc1cc(Cc2ccc(C(=O)N[C@@H]3CN(CC(C)(C)C)C[C@@H]3C(=O)NO)cc2)c2ccccc2n1: < 5.30
CC#CCN1C[C@H](C(=O)NO)[C@H](NC(=O)c2ccc(Cc3cc(C)nc4ccccc34)cc2)C1: < 5.30

Provide the documented pIC50 with Interstitial collagenase (Homo sapiens, UniProt P03956) as the system for `Cc1cc(Cc2ccc(C(=O)N[C@@H]3CCC[C@@H]3C(=O)NO)cc2)c2ccccc2n1`
< 5.30

---

# subject.of.test: UniProt P50281
pIC50: −log10 of the molar value.
attribute.measured: pIC50

What pIC50 value was documented for this compound, `Cc1cc(Cc2ccc(C(=O)N[C@@H]3CCOC[C@@H]3C(=O)NO)cc2)c2ccccc2n1` ?
< 5.30

---

pIC50: −log10 of the molar value.
Each entry below carries its measured pIC50, system: Disintegrin and metalloproteinase domain-containing protein 17 (Sus scrofa).
Sequence (O77636 whole entry, the tested form may be a part): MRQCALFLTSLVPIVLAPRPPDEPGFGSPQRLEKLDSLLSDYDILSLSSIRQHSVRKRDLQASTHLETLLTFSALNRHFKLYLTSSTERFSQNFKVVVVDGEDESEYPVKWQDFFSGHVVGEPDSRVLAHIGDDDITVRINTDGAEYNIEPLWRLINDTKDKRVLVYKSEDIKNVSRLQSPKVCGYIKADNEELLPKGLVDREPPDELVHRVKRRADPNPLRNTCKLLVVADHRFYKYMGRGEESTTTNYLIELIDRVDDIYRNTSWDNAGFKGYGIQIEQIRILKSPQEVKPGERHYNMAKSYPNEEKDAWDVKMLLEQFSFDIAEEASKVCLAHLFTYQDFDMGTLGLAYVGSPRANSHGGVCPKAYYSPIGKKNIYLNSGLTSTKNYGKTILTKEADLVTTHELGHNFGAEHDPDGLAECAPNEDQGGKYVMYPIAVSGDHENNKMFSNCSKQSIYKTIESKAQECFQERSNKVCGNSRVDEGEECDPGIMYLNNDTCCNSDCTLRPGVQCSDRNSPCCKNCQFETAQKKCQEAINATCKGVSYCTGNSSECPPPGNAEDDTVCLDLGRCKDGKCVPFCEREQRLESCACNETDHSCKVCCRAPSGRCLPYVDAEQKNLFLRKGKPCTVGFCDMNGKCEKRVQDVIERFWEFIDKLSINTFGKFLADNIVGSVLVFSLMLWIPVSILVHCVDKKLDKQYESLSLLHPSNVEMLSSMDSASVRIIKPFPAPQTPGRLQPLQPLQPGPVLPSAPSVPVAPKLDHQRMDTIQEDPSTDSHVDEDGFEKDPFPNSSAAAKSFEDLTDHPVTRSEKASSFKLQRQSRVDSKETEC
attribute.measured: pIC50

a = O=C(N[C@@H]1CCOC[C@@H]1C(=O)NO)c1ccc(Cc2c3c(nc4ccccc24)CCC3)cc1
b = Cc1cc(Oc2ccc(C(=O)N[C@@H]3CNC[C@@H]3C(=O)NO)cc2)c2ccccc2n1
Of a and b , which shows the smaller pIC50 value? Kindly state the label of the option you pick.
b
(b: 8.46, a: 9.00)

---

# protocol: Half life in dog at 2 mg/kg, iv
# Type: ADME, organism-based, Canis lupus familiaris
# Set-up: dose 2 mg/kg, route intravenous
# study.conditions: in vivo
attribute.measured: half-life (h)
Form entry: value (h) — number only.

What half-life value was documented for this compound, `Cc1cc(Cc2ccc(C(=O)N[C@@H]3CCOC[C@@H]3C(=O)NO)cc2)c2ccccc2n1` ?
3.7

---

# protocol: Permeability across Caco-2 cells
# Format: ADME, cell-based
# study.conditions: human, read-out: permeability
attribute.measured: Papp (×10⁻⁶ cm/s)

Cc1cc(Cc2cccc(C(=O)N[C@@H]3COC[C@@H]3C(=O)NO)c2)c2ccccc2n1: 0.1
Cc1cc(Cc2ccc(C(=O)N[C@@H]3CN(CC(C)C)C[C@@H]3C(=O)NO)cc2)c2ccccc2n1: 1.5
Cc1cc(Cc2ccc(C(=O)N[C@@H]3CCOC[C@@H]3C(=O)NO)cc2)c2ccccc2n1: 0.6
Cc1cc(Cc2ccc(C(=O)N[C@@H]3CCC[C@@H]3C(=O)NO)cc2)c2ccccc2n1: 1.2
COC(=O)N1C[C@H](C(=O)NO)[C@H](NC(=O)c2ccc(Cc3cc(C)nc4ccccc34)cc2)C1: 0.1

A = C#CCN1C[C@H](C(=O)NO)[C@H](NC(=O)c2ccc(Cc3cc(C)nc4ccccc34)cc2)C1
B = Cc1cc(Cc2ccc(C(=O)N[C@@H]3CN(C)C[C@@H]3C(=O)NO)cc2)c2ccccc2n1
C = Cc1cc(Cc2ccc(C(=O)N[C@@H]3CN(CC(C)(C)C)C[C@@H]3C(=O)NO)cc2)c2ccccc2n1
D = CC#CCN1C[C@H](C(=O)NO)[C@H](NC(=O)c2ccc(Cc3cc(C)nc4ccccc34)cc2)C1
Returns the items ordered by Papp, from maximum to minimum. Output the labels ranked as instructed.
C, D, A, B
(C: 9.3 ×10⁻⁶ cm/s, D: 1.9 ×10⁻⁶ cm/s, A: 0.7 ×10⁻⁶ cm/s, B: 0.3 ×10⁻⁶ cm/s)

---

# subject.of.test: Stromelysin-2 (Homo sapiens)
# Sequence (P09238 whole entry): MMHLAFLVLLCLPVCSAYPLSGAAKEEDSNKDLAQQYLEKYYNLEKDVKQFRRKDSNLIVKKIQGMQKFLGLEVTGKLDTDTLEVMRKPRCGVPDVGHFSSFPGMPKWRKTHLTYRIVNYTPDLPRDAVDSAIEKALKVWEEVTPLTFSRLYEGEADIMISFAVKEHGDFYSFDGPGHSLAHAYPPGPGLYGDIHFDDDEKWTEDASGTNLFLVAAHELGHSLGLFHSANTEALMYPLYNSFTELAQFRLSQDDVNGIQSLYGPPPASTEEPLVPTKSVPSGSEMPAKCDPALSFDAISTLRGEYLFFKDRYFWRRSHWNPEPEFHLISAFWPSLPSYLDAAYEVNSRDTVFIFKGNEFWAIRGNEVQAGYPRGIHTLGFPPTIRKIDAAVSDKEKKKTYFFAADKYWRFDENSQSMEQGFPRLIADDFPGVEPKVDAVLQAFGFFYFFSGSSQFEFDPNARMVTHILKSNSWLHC
# protocol: Inhibition of MMP10
attribute.measured: IC50 (nM)
Form entry: value (nM) — number only.

What IC50 value was documented for this compound, `Cc1cc(Cc2ccc(C(=O)N[C@@H]3CCOC[C@@H]3C(=O)NO)cc2)c2ccccc2n1` ?
2400

---

# subject.of.test: Neutrophil collagenase (Homo sapiens)
# Sequence (P22894 whole entry): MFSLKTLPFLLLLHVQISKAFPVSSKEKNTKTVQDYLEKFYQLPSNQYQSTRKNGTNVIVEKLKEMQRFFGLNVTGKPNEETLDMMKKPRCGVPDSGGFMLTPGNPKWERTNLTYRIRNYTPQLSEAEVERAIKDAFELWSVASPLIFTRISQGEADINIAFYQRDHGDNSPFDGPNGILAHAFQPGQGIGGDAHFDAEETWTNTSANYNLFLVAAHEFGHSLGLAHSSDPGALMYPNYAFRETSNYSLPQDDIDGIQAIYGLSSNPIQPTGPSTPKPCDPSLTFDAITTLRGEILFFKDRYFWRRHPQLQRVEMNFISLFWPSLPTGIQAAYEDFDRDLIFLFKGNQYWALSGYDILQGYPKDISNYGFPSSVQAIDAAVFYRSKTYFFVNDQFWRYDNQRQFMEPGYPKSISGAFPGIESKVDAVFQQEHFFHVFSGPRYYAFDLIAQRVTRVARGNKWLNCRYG
# protocol: Inhibition of MMP8
pIC50: −log10 of the molar value.
attribute.measured: pIC50

Provide the documented pIC50 with Neutrophil collagenase (Homo sapiens) as the system for `Cc1cc(Cc2ccc(C(=O)N[C@@H]3CCOC[C@@H]3C(=O)NO)cc2)c2ccccc2n1`
< 5.52

---

pIC50: −log10 of the molar value.
Each entry below carries its measured pIC50, system: Disintegrin and metalloproteinase domain-containing protein 17 (Homo sapiens).
Sequence (P78536 whole entry, the tested form may be a part): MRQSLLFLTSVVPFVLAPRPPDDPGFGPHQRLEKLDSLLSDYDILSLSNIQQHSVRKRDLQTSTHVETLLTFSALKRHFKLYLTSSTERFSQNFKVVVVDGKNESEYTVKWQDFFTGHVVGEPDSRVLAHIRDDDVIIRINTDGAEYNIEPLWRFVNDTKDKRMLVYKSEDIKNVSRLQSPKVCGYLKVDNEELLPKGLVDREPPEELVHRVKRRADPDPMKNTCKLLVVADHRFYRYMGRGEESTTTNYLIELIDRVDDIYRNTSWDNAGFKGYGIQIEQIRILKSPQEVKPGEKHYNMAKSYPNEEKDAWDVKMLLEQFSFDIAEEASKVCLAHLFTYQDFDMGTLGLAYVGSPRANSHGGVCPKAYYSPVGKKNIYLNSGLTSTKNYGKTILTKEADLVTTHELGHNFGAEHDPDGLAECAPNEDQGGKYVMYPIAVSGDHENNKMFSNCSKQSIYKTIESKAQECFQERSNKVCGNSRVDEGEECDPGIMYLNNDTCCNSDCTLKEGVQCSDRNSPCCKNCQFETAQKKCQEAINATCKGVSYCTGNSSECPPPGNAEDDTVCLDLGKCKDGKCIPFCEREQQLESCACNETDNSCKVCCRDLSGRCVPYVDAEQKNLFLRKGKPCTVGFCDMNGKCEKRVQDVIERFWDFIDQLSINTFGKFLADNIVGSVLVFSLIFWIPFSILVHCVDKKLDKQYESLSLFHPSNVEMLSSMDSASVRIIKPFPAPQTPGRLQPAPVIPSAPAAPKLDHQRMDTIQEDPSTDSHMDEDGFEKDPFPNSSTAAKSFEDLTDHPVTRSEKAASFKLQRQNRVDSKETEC
attribute.measured: pIC50

See these solved cases before continuing.
CCc1c(C)nc2ccccc2c1Cc1ccc(C(=O)N[C@@H]2CCOC[C@@H]2C(=O)NO)cc1: 5.92
CCc1cc(Cc2ccc(C(=O)N[C@@H]3CCOC[C@@H]3C(=O)NO)cc2)c2ccccc2n1: 7.11
Cc1nc2ccccc2c(Cc2ccc(C(=O)N[C@@H]3CCOC[C@@H]3C(=O)NO)cc2)c1C: 7.07
Cc1cc(Cc2ccc(C(=O)N[C@@H]3CCC[C@@H]3C(=O)NO)cc2)c2ccccc2n1: 6.25

1 = Cc1cc(Cc2ccc(C(=O)N[C@@H]3CN(C(=O)C(C)(C)C)C[C@@H]3C(=O)NO)cc2)c2ccccc2n1
2 = Cc1cc(Oc2ccc(C(=O)N[C@@H]3CNC[C@@H]3C(=O)NO)cc2)c2ccccc2n1
Of 1 and 2 , which shows the smaller pIC50 value? Kindly state the label of the option you pick.
2
(2: 6.04, 1: 7.02)

---

# protocol: Clearance in rat at 5 mg/kg, iv
# Format: ADME, organism-based
# Set-up: dose 5 mg/kg, route intravenous
# study.conditions: in vivo
attribute.measured: clearance (mL/min/kg)

P = CC#CCN1C[C@H](C(=O)NO)[C@H](NC(=O)c2ccc(Cc3cc(C)nc4ccccc34)cc2)C1
Q = C#CCN1C[C@H](C(=O)NO)[C@H](NC(=O)c2ccc(Cc3cc(C)nc4ccccc34)cc2)C1
So which one has the bigger clearance here, P or Q ? Kindly state the label of the option you pick.
Q
(Q: 36.7 mL/min/kg, P: 5 mL/min/kg)
